# Tested On: human Adenosine A2a receptor (Homo sapiens, UniProt P29274)
# Construct: expressed in transfected cells; host or cells: CHO cell membranes
# Sequence (P29274 whole entry): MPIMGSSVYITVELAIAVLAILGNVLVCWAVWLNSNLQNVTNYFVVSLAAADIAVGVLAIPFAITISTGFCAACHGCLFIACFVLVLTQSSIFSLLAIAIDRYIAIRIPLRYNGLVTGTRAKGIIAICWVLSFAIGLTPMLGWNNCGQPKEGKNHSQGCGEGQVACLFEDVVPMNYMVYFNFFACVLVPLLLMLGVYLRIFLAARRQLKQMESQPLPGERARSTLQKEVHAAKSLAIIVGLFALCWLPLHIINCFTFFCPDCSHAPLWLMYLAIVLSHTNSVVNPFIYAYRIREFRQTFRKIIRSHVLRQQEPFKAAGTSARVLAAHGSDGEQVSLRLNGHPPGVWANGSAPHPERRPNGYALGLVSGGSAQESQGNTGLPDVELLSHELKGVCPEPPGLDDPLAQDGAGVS
# Method: Adenosine receptor TR-FRET binding assay (CA200645 displacement), A2a
# Reported Conditions: 100 nM CA200645, CHO cell membranes, 2 hours at room temperature
Where a name gives a salt, the structure may show the parent alone.

{"Compound": "Cc1cc(-c2c(-c3cccc(C#N)c3)nn3ccc(C(=O)N[C@@H]4CCCNC4)nc23)cc(Cl)n1", "Tested On": "human Adenosine A2a receptor (Homo sapiens, UniProt P29274)", "Units": "nM", "Ki": 14.9}
{"Compound": "OCc1c(-c2ccco2)nn2ccc(NCc3ccccc3)nc12", "Tested On": "human Adenosine A2a receptor (Homo sapiens, UniProt P29274)", "Units": "nM", "Ki": 153}
{"Compound": "N#Cc1c(-c2ccco2)nn2ccc(NCCCO)nc12", "Tested On": "human Adenosine A2a receptor (Homo sapiens, UniProt P29274)", "Units": "nM", "Ki": 103}
{"Compound": "CN1CCC[C@@H]1CNc1ccn2nc(-c3ccco3)c(C#N)c2n1", "Tested On": "human Adenosine A2a receptor (Homo sapiens, UniProt P29274)", "Units": "nM", "Ki": 202}
{"Compound": "Cc1cc(-c2c(-c3cccc(C#N)c3)nn3ccc(C(=O)NCC4(C)COC(=O)N4)nc23)cc(C)n1 (stereo not drawn)", "Tested On": "human Adenosine A2a receptor (Homo sapiens, UniProt P29274)", "Units": "nM", "Ki": 0.7}
{"Compound": "N#Cc1c(-c2ccco2)nn2ccc(NC[C@@H]3CNCCO3)nc12 [Example 42, hydrochloride]", "Tested On": "human Adenosine A2a receptor (Homo sapiens, UniProt P29274)", "Units": "nM", "Ki": 345}
{"Compound": "Cc1cc(-c2c(-c3cccc(C#N)c3)nn3ccc(C(=O)NC(C)(C)C)nc23)cc(N)n1", "Tested On": "human Adenosine A2a receptor (Homo sapiens, UniProt P29274)", "Units": "nM", "Ki": 0.2}
{"Compound": "Cc1cc(-c2c(-c3cccc(C#N)c3)nn3ccc(C(=O)NCC(C)(C)O)nc23)cc(C)n1", "Tested On": "human Adenosine A2a receptor (Homo sapiens, UniProt P29274)", "Units": "nM", "Ki": 0.4}
{"Compound": "Cc1cc(-c2c(-c3cccc(C#N)c3)nn3ccc(NCC4CNC(=O)C4)nc23)cc(Cl)n1 (stereo not drawn)", "Tested On": "human Adenosine A2a receptor (Homo sapiens, UniProt P29274)", "Units": "nM", "Ki": 1.5}
{"Compound": "Fc1cccc(-c2nn3ccc(NCc4ccccc4)nc3c2Cl)c1", "Tested On": "human Adenosine A2a receptor (Homo sapiens, UniProt P29274)", "Units": "nM", "Ki": 120}
{"Compound": "Cc1cccnc1CNc1ccn2nc(-c3ccco3)c(C#N)c2n1", "Tested On": "human Adenosine A2a receptor (Homo sapiens, UniProt P29274)", "Units": "nM", "Ki": 0.3}
{"Compound": "Cc1cc(-c2c(-c3cccc(C#N)c3)nn3ccc(N)nc23)cc(N(C)C)n1", "Tested On": "human Adenosine A2a receptor (Homo sapiens, UniProt P29274)", "Units": "nM", "Ki": 15.2}
{"Compound": "Cc1cccnc1CN1CCN(c2ccn3nc(-c4cccc(C#N)c4)c(C#N)c3n2)CC1", "Tested On": "human Adenosine A2a receptor (Homo sapiens, UniProt P29274)", "Units": "nM", "Ki": 17.5}
{"Compound": "Cc1cc(-c2c(-c3cccc(C#N)c3)nn3ccc(C(N)=O)nc23)cc(Cl)n1", "Tested On": "human Adenosine A2a receptor (Homo sapiens, UniProt P29274)", "Units": "nM", "Ki": 4.6}
{"Compound": "O=C(O)c1c(-c2ccco2)nn2ccc(NCc3ccccc3)nc12", "Tested On": "human Adenosine A2a receptor (Homo sapiens, UniProt P29274)", "Units": "nM", "Ki": 116}
{"Compound": "C=C(C)[C@H](C)NC(=O)c1ccn2nc(-c3cccc(C#N)c3)c(-c3cc(C)nc(C)c3)c2n1", "Tested On": "human Adenosine A2a receptor (Homo sapiens, UniProt P29274)", "Units": "nM", "Ki": 0.4}
{"Compound": "Cc1cc(-c2c(-c3cccc(C#N)c3)nn3ccc(C(=O)NC4COC4)nc23)cc(Cl)n1", "Tested On": "human Adenosine A2a receptor (Homo sapiens, UniProt P29274)", "Units": "nM", "Ki": 1.7}
{"Compound": "N#Cc1c(-c2ccco2)nn2ccc(N3CCN(CCc4ccccc4)CC3)nc12", "Tested On": "human Adenosine A2a receptor (Homo sapiens, UniProt P29274)", "Units": "nM", "Ki": 45.4}
{"Compound": "Cc1cc(-c2c(-c3cccc(C#N)c3)nn3ccc(NCC(C)(C)O)nc23)cc(Cl)n1", "Tested On": "human Adenosine A2a receptor (Homo sapiens, UniProt P29274)", "Units": "nM", "Ki": 3.9}
{"Compound": "N#Cc1c(-c2ccco2)nn2ccc(NC[C@H]3CCCNC3)nc12 [Example 56, hydrochloride]", "Tested On": "human Adenosine A2a receptor (Homo sapiens, UniProt P29274)", "Units": "nM", "Ki": 141}
{"Compound": "CCN1CCC(NC(=O)Nc2ccn3nc(-c4cccc(C#N)c4)c(-c4cc(C)nc(Cl)c4)c3n2)CC1", "Tested On": "human Adenosine A2a receptor (Homo sapiens, UniProt P29274)", "Units": "nM", "Ki": 31.5}
{"Compound": "N#Cc1cccc(-c2nn3ccc(N)nc3c2-c2cn[nH]c2)c1", "Tested On": "human Adenosine A2a receptor (Homo sapiens, UniProt P29274)", "Units": "nM", "Ki": 147}
{"Compound": "Cn1ccnc1CN1CCN(c2ccn3nc(-c4ccco4)c(C#N)c3n2)CC1", "Tested On": "human Adenosine A2a receptor (Homo sapiens, UniProt P29274)", "Units": "nM", "Ki": 54.9}
{"Compound": "Cc1cc(-c2c(-c3cccc(C#N)c3)nn3ccc(NC4CCNCC4)nc23)cc(Cl)n1", "Tested On": "human Adenosine A2a receptor (Homo sapiens, UniProt P29274)", "Units": "nM", "Ki": 0.1}
{"Compound": "Cc1cc(-c2c(-c3cccc(C#N)c3)nn3ccc(NC4CCN(S(C)(=O)=O)CC4)nc23)cc(Cl)n1", "Tested On": "human Adenosine A2a receptor (Homo sapiens, UniProt P29274)", "Units": "nM", "Ki": 1.5}
{"Compound": "Cc1cc(-c2c(-c3cccc(C#N)c3)nn3ccc(N)nc23)cc(N)n1", "Tested On": "human Adenosine A2a receptor (Homo sapiens, UniProt P29274)", "Units": "nM", "Ki": 9.2}
{"Compound": "Cc1cc(-c2c(-c3cccc(C#N)c3)nn3ccc(NC(=O)CC(C)(C)O)nc23)cc(C)n1", "Tested On": "human Adenosine A2a receptor (Homo sapiens, UniProt P29274)", "Units": "nM", "Ki": 1.7}
{"Compound": "Cc1cc(-c2c(-c3cccc(C#N)c3)nn3ccc(C(N)=O)nc23)cc(C)n1", "Tested On": "human Adenosine A2a receptor (Homo sapiens, UniProt P29274)", "Units": "nM", "Ki": 5.7}
{"Compound": "Cc1cc(-c2c(-c3cccc(C#N)c3)nn3ccc(NCC4(O)CNC4)nc23)cc(Cl)n1 [Example 4.11, trifluoroacetate]", "Tested On": "human Adenosine A2a receptor (Homo sapiens, UniProt P29274)", "Units": "nM", "Ki": 6.8}
{"Compound": "Cc1cc(-c2c(-c3cccc(C#N)c3)nn3ccc(O[C@H]4CCNC4)nc23)cc(Cl)n1", "Tested On": "human Adenosine A2a receptor (Homo sapiens, UniProt P29274)", "Units": "nM", "Ki": 12.5}
{"Compound": "Cc1cc(-c2c(-c3cccc(C#N)c3)nn3ccc(C(=O)NC45CC(N)(C4)C5)nc23)cc(Cl)n1", "Tested On": "human Adenosine A2a receptor (Homo sapiens, UniProt P29274)", "Units": "nM", "Ki": 2}
{"Compound": "c1coc(-c2cc3nc(NCc4nccs4)ccn3n2)c1", "Tested On": "human Adenosine A2a receptor (Homo sapiens, UniProt P29274)", "Units": "nM", "Ki": 587}
{"Compound": "Cc1cc(-c2c(-c3cccc(C#N)c3)nn3ccc(C(=O)NCCN4CCN(c5ccccc5)CC4)nc23)cc(Cl)n1", "Tested On": "human Adenosine A2a receptor (Homo sapiens, UniProt P29274)", "Units": "nM", "Ki": 1.3}
